The reported numbers originate from the Human Domainome abundance scans (Beltran et al. 2025).

B1: Intersectin-1, residues 1156 to 1213; numbered along this chain, Q15811 (parent)
chain: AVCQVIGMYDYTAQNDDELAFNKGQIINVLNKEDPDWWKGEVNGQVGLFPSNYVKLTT

- Variants of: B1
- ASSAY_SUMMARY: abundance fitness (aPCA) (normalised: wild type 0, dead -1); higher = more abundant; growth selection in yeast, the domain comes from the species named
- SETUP_CONDITIONS: Homo sapiens
// class assignment uses abundance fitness with these ranges: range 1 (below -0.8), range 2 (-0.8 to below -0.5), range 3 (-0.5 or more)

stdin: Tag the class for AVCQVIGMYDVTAQNDDELAFNKGQIINVLNKEDPDWWKGEVNGQVGLFPSNYVKLTT [Y11V]
stdout: range 2

stdin: Quick one: AVCQVIGMYDYTAQNDDELAFNKGQIINVLNKEDPDCWKGEVNGQVGLFPSNYVKLTT [W37C]
stdout: range 2

stdin: Quick one: AVCQVIGMYDYTAQNDDELAFNKGQIINVLNKEDPDWWKGEVNGQVGLFKSNYVKLTT [P50K]
stdout: range 2

stdin: Quick one: AVCQVIGMYDYTAQNDDELAFNKGQIINVLNKEDPDWWKGYVNGQVGLFPSNYVKLTT [E41Y]
stdout: range 1

stdin: Quick one: AVCQVIGMYDYTCQNDDELAFNKGQIINVLNKEDPDWWKGEVNGQVGLFPSNYVKLTT [A13C]
stdout: range 2

stdin: Quick one: AVCQVIGMYDYTAQNDDELAFNKGQIINVLNKEDPDWWKGEVNGQVGLFPSNYLKLTT [V54L]
stdout: range 1

stdin: Quick one: AVCQVIGMYDYTAQNDDELAFNKGQIINVLNKEDPYWWKGEVNGQVGLFPSNYVKLTT [D36Y]
stdout: range 3

stdin: Quick one: AVCQVIQMYDYTAQNDDELAFNKGQIINVLNKEDPDWWKGEVNGQVGLFPSNYVKLTT [G7Q]
stdout: range 1

stdin: Quick one: AVCQVIGMYDYTAQNDDESAFNKGQIINVLNKEDPDWWKGEVNGQVGLFPSNYVKLTT [L19S]
stdout: range 1

stdin: Quick one: AVCQVIGMYSYTAQNDDELAFNKGQIINVLNKEDPDWWKGEVNGQVGLFPSNYVKLTT [D10S]
stdout: range 3

stdin: Quick one: AVCQVIGMYDYTAQNDDELAFNKGQIINVLNKEDPDWWKGEVRGQVGLFPSNYVKLTT [N43R]
stdout: range 3

stdin: Quick one: AECQVIGMYDYTAQNDDELAFNKGQIINVLNKEDPDWWKGEVNGQVGLFPSNYVKLTT [V2E]
stdout: range 3

stdin: Quick one: AVCQVIGMYDYTAQNDDELAFNKGQIINVLNKEDPDWDKGEVNGQVGLFPSNYVKLTT [W38D]
stdout: range 2

stdin: Quick one: AVCQVWGMYDYTAQNDDELAFNKGQIINVLNKEDPDWWKGEVNGQVGLFPSNYVKLTT [I6W]
stdout: range 2

stdin: Quick one: AVCQVIGMYDYTAQNDDELAFNKGQIINVLNKEDPDWWKGEVNNQVGLFPSNYVKLTT [G44N]
stdout: range 3

stdin: Quick one: AVCQVIGMYDYTAQNDDELAFNKGQLINVLNKEDPDWWKGEVNGQVGLFPSNYVKLTT [I26L]
stdout: range 3

stdin: Quick one: AVCQVIGMYDYTAQNDDELAFNKGQIINVLNKEDPDWWKGEVNGQVGLMPSNYVKLTT [F49M]
stdout: range 2

stdin: Quick one: AVCQVIDMYDYTAQNDDELAFNKGQIINVLNKEDPDWWKGEVNGQVGLFPSNYVKLTT [G7D]
stdout: range 2

stdin: Quick one: AVCSVIGMYDYTAQNDDELAFNKGQIINVLNKEDPDWWKGEVNGQVGLFPSNYVKLTT [Q4S]
stdout: range 3

stdin: Quick one: AVCQVIGMYDYTAQNDDELAFNKGQIINVLNKEDPDWWKGEVNGQVGLFPQNYVKLTT [S51Q]
stdout: range 3

stdin: Quick one: AVCQVIGMYDYTAQNDDECAFNKGQIINVLNKEDPDWWKGEVNGQVGLFPSNYVKLTT [L19C]
stdout: range 2

stdin: Quick one: AVCQVIGMYDYTAYNDDELAFNKGQIINVLNKEDPDWWKGEVNGQVGLFPSNYVKLTT [Q14Y]
stdout: range 1

stdin: Quick one: AVCQVIGMYDYTAQNDDVLAFNKGQIINVLNKEDPDWWKGEVNGQVGLFPSNYVKLTT [E18V]
stdout: range 2

stdin: Quick one: AVCQVIGMYDYTAQNDDELAFNKGQIINVLNKEDPDWWKGEVNGQVGLFPSNLVKLTT [Y53L]
stdout: range 3

stdin: Quick one: AVCQVIGMYDYTAQNDDELAFNKGQIINVLNKEDPDWWKGEVNGQVGLFPSNVVKLTT [Y53V]
stdout: range 3

stdin: Quick one: AVCQVIGMYDYTAQNDEELAFNKGQIINVLNKEDPDWWKGEVNGQVGLFPSNYVKLTT [D17E]
stdout: range 3

stdin: Quick one: AVCQVIGMYDYTAQNDDELAFNKGQIINDLNKEDPDWWKGEVNGQVGLFPSNYVKLTT [V29D]
stdout: range 2

stdin: Quick one: AVCQVIGMYDYTAQNDDELAFNKGQIINVLNKEDPDWWKGEVNGQVGPFPSNYVKLTT [L48P]
stdout: range 1

stdin: Quick one: AVCQVIGMYDYTAQNDDELAFNKGQIINVLPKEDPDWWKGEVNGQVGLFPSNYVKLTT [N31P]
stdout: range 1

stdin: Quick one: AVCQVIGMYDYTAQNDDELAFNKGQIINVLNKEDPDWWKGEVNGQVDLFPSNYVKLTT [G47D]
stdout: range 1

stdin: Quick one: AVCQVIGMYDYTAQNDDELAFNKGQIINVLNKEEPDWWKGEVNGQVGLFPSNYVKLTT [D34E]
stdout: range 3

stdin: Quick one: AVCQVIGMYDYTAQNDDELAFNKGQIINVLNKEDPDWWKGEVNGQVGLFPSNYVKHTT [L56H]
stdout: range 3

stdin: Quick one: AVCQVIGMYDYTAQNDDELAFNKGQIINVLNKEDPPWWKGEVNGQVGLFPSNYVKLTT [D36P]
stdout: range 2

stdin: Quick one: AVCQVIGMYDYTAQNDDELAFNKGQIINVLNKEDPDWWKGEVNGQVGLFPSNYVKSTT [L56S]
stdout: range 3

stdin: Quick one: AVCQVIGMYDYTAQNDDELAFNKGQSINVLNKEDPDWWKGEVNGQVGLFPSNYVKLTT [I26S]
stdout: range 2

stdin: Quick one: AVCQVIGMYDYTAQNDDELAFNKGQIGNVLNKEDPDWWKGEVNGQVGLFPSNYVKLTT [I27G]
stdout: range 2

stdin: Quick one: AVCQVIGMYDYTAQNDDELAFNKGQQINVLNKEDPDWWKGEVNGQVGLFPSNYVKLTT [I26Q]
stdout: range 3

stdin: Quick one: AVCQVIWMYDYTAQNDDELAFNKGQIINVLNKEDPDWWKGEVNGQVGLFPSNYVKLTT [G7W]
stdout: range 2

stdin: Quick one: AVCQVIGMYDYTAQNDDEHAFNKGQIINVLNKEDPDWWKGEVNGQVGLFPSNYVKLTT [L19H]
stdout: range 1

stdin: Quick one: AVCQVIGMYDYTAQNDDELAFNKGQIINVLNKEDPDWWKPEVNGQVGLFPSNYVKLTT [G40P]
stdout: range 2

stdin: Quick one: AVCQVIGMYDYTAQNDDELAFNKGQIINVLNKEDPDYWKGEVNGQVGLFPSNYVKLTT [W37Y]
stdout: range 3

stdin: Quick one: AVCQVIGMYDYTAQNDDELAFNKGQIINVLNKEDPDWWKGEVNGQVGLFPSNYDKLTT [V54D]
stdout: range 1

stdin: Quick one: AVCQVIGMYDYTAQNDDELAFNKGQIINVLNKEDPDWWKGEVNGQVGLRPSNYVKLTT [F49R]
stdout: range 1
